Origin of measurements: patent US12187709B2

target: Cbl-b (Homo sapiens (Human), UniProt Q13191); experiment: Cbl-b LCK Ub TR-FRET assay (Cbl-b Lck HTRF); assay type: biochemical; settings: ratio C-cbl Lck HTRF IC50 / Cbl-b Lck HTRF IC50
Sequence (Q13191 40-426): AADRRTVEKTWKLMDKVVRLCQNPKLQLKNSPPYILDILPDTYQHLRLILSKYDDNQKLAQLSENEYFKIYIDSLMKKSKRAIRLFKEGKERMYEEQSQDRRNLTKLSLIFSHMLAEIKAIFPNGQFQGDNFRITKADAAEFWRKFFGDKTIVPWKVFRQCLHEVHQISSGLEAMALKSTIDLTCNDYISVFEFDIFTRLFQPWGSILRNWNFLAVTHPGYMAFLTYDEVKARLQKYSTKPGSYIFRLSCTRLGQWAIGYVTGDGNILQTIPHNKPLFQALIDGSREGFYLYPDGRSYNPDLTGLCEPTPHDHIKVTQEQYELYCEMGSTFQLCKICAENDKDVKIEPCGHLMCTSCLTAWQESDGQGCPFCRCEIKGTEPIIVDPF
readout label: fold-selectivity (Cbl-b over C-cbl) (x)

molecule | number
Cn1cnnc1[C@H](C[C@H]1COCCO1)c1cccc(N2Cc3c(cc(CNC4(C)CCC4)cc3C(F)(F)F)C2=O)c1 [Compound 294] | 1.6
Cn1cnnc1C1(c2cccc(N3Cc4c(cc(CNC5(C)CCC5)cc4C(F)(F)F)C3=O)c2)CC2(C1)OCCO2 [Compound 293] | 3.0
Cn1cnnc1[C@@H](c1cccc(N2Cc3c(cc(CNC4(C)CCC4)cc3C(F)(F)F)C2=O)c1)C1CC(OC(F)F)C1 (single isomer, unassigned) [Compound 387] | 7.8
Cn1cnnc1C(c1cccc(N2Cc3c(cc(CNC4(C)CCC4)cc3C(F)(F)F)C2=O)c1)[C@H]1C[C@@H](CC#N)C1 (single isomer, unassigned) [Compound 365] | 1.2
COC[C@H]1C[C@@](c2cccc(N3Cc4c(cc(CNC5(C)CCC5)cc4C(F)(F)F)C3=O)c2)(c2nncn2C)C1 [Compound 103] | 1.7

1 = Cn1cnnc1[C@@H](CC1CCCC1)c1cccc(N2Cc3c(cc(CNC4(C)CCC4)cc3C(F)(F)F)C2=O)c1 [Compound 248]
2 = Cn1cnnc1C1(c2cccc(N3Cc4c(cc(CNC5(C)CCC5)cc4C(F)(F)F)C3=O)c2)CC2(CN(S(C)(=O)=O)C2)C1 [Compound 98]
3 = Cn1cnnc1[C@@H](C[C@H]1COCCO1)c1cccc(N2Cc3c(cc(CNC4(C)CCC4)cc3C(F)(F)F)C2=O)c1 (single isomer, unassigned) [Compound 295]
4 = CC(=O)N1CC2(C1)CC(c1cccc(N3Cc4c(cc(CNC5(C)CCC5)cc4C(F)(F)F)C3=O)c1)(c1nncn1C)C2 [Compound 97]
Sort (4 molecules) by fold-selectivity (Cbl-b over C-cbl): min first. Labels, ranked as asked.
3, 1, 4, 2

====

target: Human Cbl-b (residues 40-426) (Homo sapiens (Human)); test: Cbl-b SPR assay; format: binding; settings: C-cbl SPR Kd vs Cbl-b SPR Kd
readout label: Fold of selectivity (×)

molecule | readout label | number
CC(=O)[C@H]1C[C@](c2cccc(N3Cc4c(cc(CNC5(C)CCC5)cc4C(F)(F)F)C3=O)c2)(c2nncn2C)C1 | Fold of selectivity | 11
CO[C@H]1C[C@H]([C@@H](c2cccc(N3Cc4c(cc(CN5CCN(C)C[C@@H]5C(C)C)cc4C(F)(F)F)C3=O)c2)c2nncn2C)C1 (single isomer, unassigned) [Compound 15] | Fold of selectivity | 14
C[C@H](NC1(C)CCC1)c1cc(Cl)c2c(c1)C(=O)N(c1cccc([C@]3(c4nncn4C)C[C@H](F)C3)c1)C2 (single isomer, unassigned) | Fold of selectivity | 14

====

molecular target: c-Cbl (Homo sapiens (Human))
Sequence (P22681 47-435): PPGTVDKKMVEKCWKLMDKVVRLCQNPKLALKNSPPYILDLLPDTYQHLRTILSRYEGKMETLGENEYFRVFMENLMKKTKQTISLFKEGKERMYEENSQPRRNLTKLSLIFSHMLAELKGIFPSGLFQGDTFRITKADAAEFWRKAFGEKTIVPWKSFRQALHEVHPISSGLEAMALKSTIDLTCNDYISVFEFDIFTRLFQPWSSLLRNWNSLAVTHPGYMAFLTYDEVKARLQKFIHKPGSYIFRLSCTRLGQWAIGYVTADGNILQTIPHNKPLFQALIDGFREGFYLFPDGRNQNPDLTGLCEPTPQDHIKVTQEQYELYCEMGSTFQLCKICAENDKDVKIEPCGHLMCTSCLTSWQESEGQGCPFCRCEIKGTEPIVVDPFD
pIC50: −log10 of the molar value.
readout label: pIC50

Please review the following examples before continuing.
compound | number
Cn1cnnc1[C@H](c1cccc(N2Cc3c(cc(CNC4(C)CCC4)cc3C(F)(F)F)C2=O)c1)C1CCCC1 | 7.57
Cn1cnnc1[C@]1(c2cccc(N3Cc4c(cc(CNC5(C)CCC5)cc4C(F)(F)F)C3=O)c2)C[C@@](C)(O)C1 | 6.29
CO[C@H]1C[C@@](c2cc(N[C@H](C)CC#N)cc(N3Cc4c(cc(CNC5(C)CCC5)cc4C(F)(F)F)C3=O)c2)(c2nncn2C)C1 (single isomer, unassigned) | 7.68
CCNc1cc(N2Cc3c(cc(CNC4(C)CCC4)cc3C(F)(F)F)C2=O)cc([C@]2(c3nncn3C)C[C@@H](OC)C2)c1 | 7.80

1 = Cn1cnnc1[C@@H](CC1CCS(=O)(=O)CC1)c1cccc(N2Cc3c(cc(CNC4(C)CCC4)cc3C(F)(F)F)C2=O)c1
2 = Cn1cnnc1C1(c2cccc(N3Cc4c(cc(CNC5(C)CCC5)cc4C(F)(F)F)C3=O)c2)CC(OC(F)(F)F)C1 (single isomer, unassigned)
// compare measured pIC50 between 1 and 2 ; output the lower one Which one? Tell me its label.
1
(1: 4.70, 2: 7.70)

====

biological target: Human Cbl-b (residues 40-426) (Homo sapiens (Human), UniProt Q13191); assay: Cbl-b SPR assay; type: binding; settings: C-cbl SPR Kd vs Cbl-b SPR Kd
readout label: Fold of selectivity (×)

Please review the following examples before continuing.
compound | subject of test | Fold of selectivity, ×
C[C@@H]1C[C@@](c2cccc(N3Cc4c(cc(CNC5(C)CCC5)cc4C(F)(F)F)C3=O)c2)(c2nncn2C)O1 [Compound 124] | Human Cbl-b (residues 40-426) (Homo sapiens (Human), UniProt Q13191) | 3.9
COc1cc(N2Cc3c(cc(CNC4(C)CCC4)cc3C(F)(F)F)C2=O)cc([C@]2(c3nncn3C)C[C@H](OC)C2)c1 [Compound 201] | Human Cbl-b (residues 40-426) (Homo sapiens (Human), UniProt Q13191) | 3.6
CCNc1cc(C2(c3nncn3C)CC(F)(F)C2)cc(N2Cc3c(cc(CNC4(C)CCC4)cc3C(F)(F)F)C2=O)n1 [Compound 17] | Human Cbl-b (residues 40-426) (Homo sapiens (Human), UniProt Q13191) | 3.2

I = CO[C@H]1C[C@](c2cc(NC(C)C)cc(N3Cc4c(cc(CNC5(C)CCC5)cc4C(F)(F)F)C3=O)c2)(c2nncn2C)C1 [Compound 215]
II = Cn1cnnc1C(F)(c1cccc(N2Cc3c(cc(CNC4(C)CCC4)cc3C(F)(F)F)C2=O)c1)C1(F)COC1 (stereo in doubt) [Compound 404]
III = Cn1cnnc1C1(c2cc(OC3CCCC3)nc(N3Cc4c(cc(CNC5(C)CCC5)cc4C(F)(F)F)C3=O)c2)CC2(COC2)C1 [Compound 193]
Please list the entries, largest Fold of selectivity first. Labels, ranked as asked.
III, I, II

====

molecular target: Cbl-b (Homo sapiens (Human)); test: Cbl-b LCK Ub TR-FRET assay (Cbl-b Lck HTRF); type: biochemical; conditions: ratio C-cbl Lck HTRF IC50 / Cbl-b Lck HTRF IC50
readout label: fold-selectivity (Cbl-b over C-cbl) (x)

compound | readout label | units | number
Cn1cnnc1[C@@](O)(c1cccc(N2Cc3c(cc(CNC4(C)CCC4)cc3C(F)(F)F)C2=O)c1)C1COC1 (single isomer, unassigned) | fold-selectivity (Cbl-b over C-cbl) | x | 3.1
CC[C@H](c1cccc(N2Cc3c(Cl)cc(CNC4(C)CCC4)cc3C2=O)c1)c1nncn1C (single isomer, unassigned) | fold-selectivity (Cbl-b over C-cbl) | x | 3.5

====

biological target: Cbl-b (Homo sapiens (Human)); test: Cbl-b LCK Ub TR-FRET assay (Cbl-b Lck HTRF); format: biochemical; conditions: ratio C-cbl Lck HTRF IC50 / Cbl-b Lck HTRF IC50
readout label: fold-selectivity (Cbl-b over C-cbl) (x)

compound | units | number
Cn1cnnc1[C@@H](c1cccc(N2Cc3c(cc(CNC4(C)CCC4)cc3C(F)(F)F)C2=O)c1)C1(O)COC1 (single isomer, unassigned) | x | 2.3
CC(=O)N(C)[C@H](c1cccc(N2Cc3c(cc(CNC4(C)CCC4)cc3C(F)(F)F)C2=O)c1)c1nncn1C (single isomer, unassigned) | x | 12

I = Cn1cnnc1[C@]1(c2cccc(N3Cc4c(cc(CNC5(C)CCC5)cc4C(F)(F)F)C3=O)c2)C[C@@H](OC(F)F)C1
II = C=CCOc1cc(N2Cc3c(cc(CNC4(C)CCC4)cc3C(F)(F)F)C2=O)cc([C@]2(c3nncn3C)C[C@@H](OC)C2)c1
When I and II are compared, which has the higher number for fold-selectivity (Cbl-b over C-cbl)? Which one? Tell me its label.
II
(II: 3.8 x, I: 2.5 x)

====

biological target: Cbl-b (Homo sapiens (Human), UniProt Q13191); assay: Cbl-b LCK Ub TR-FRET assay (Cbl-b Lck HTRF); assay type: biochemical; settings: ratio C-cbl Lck HTRF IC50 / Cbl-b Lck HTRF IC50
readout label: fold-selectivity (Cbl-b over C-cbl) (x)

a = Cn1cnnc1C1(c2cccc(N3Cc4c(cc(CNC5(C)CCC5)cc4C(F)(F)F)C3=O)c2)CCC1
b = CC(C)[C@](O)(c1cccc(N2Cc3c(cc(CNC4(C)CCC4)cc3C(F)(F)F)C2=O)c1)c1nncn1C
// compare measured fold-selectivity (Cbl-b over C-cbl) between a and b ; output the lower one Which one? Tell me its label.
a
(a: 1.4 x, b: 4.7 x)

====

molecular target: Cbl-b (Homo sapiens (Human)); assay: Cbl-b LCK Ub TR-FRET assay (Cbl-b Lck HTRF); format: biochemical; details: ratio C-cbl Lck HTRF IC50 / Cbl-b Lck HTRF IC50
readout label: fold-selectivity (Cbl-b over C-cbl) (x)

compound | fold-selectivity (Cbl-b over C-cbl), x
CO[C@H]1C[C@@](c2cc(OC3COC3)cc(N3Cc4c(cc(CNC5(C)CCC5)cc4C(F)(F)F)C3=O)c2)(c2nncn2C)C1 [Compound 241] | 4.0

a = COC[C@@H]1CC1(c1cccc(N2Cc3c(cc(CNC4(C)CCC4)cc3C(F)(F)F)C2=O)c1)c1nncn1C (single isomer, unassigned) [Compound 166]
b = C[C@H](CC#N)Nc1cc(C2(c3nncn3C)CC3(COC3)C2)cc(N2Cc3c(cc(CNC4(C)CCC4)cc3C(F)(F)F)C2=O)n1 [Compound 192]
When a and b are compared, which has the higher number for fold-selectivity (Cbl-b over C-cbl)? Which one? Tell me its label.
a
(a: 3.8 x, b: 0.7 x)
